target: Rhodesain (Trypanosoma brucei rhodesiense, UniProt Q95PM0); assay: Inhibition of Trypanosoma brucei rhodesiense rhodesain
Sequence (Q95PM0 whole entry): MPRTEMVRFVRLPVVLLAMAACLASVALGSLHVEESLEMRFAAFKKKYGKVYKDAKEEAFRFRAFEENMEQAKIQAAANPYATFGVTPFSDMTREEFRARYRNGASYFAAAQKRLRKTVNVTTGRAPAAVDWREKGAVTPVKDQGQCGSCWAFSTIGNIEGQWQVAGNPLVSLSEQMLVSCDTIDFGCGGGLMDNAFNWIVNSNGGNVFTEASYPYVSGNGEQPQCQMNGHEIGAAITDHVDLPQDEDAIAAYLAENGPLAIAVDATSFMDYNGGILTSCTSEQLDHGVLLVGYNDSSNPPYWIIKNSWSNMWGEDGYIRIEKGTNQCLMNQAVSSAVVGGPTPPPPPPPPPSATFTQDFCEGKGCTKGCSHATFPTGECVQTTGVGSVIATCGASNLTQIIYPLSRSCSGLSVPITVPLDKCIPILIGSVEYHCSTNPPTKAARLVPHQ
pKi: −log10 of the molar value.
Give met when the value for pKi is at least 6. Give not met when it is less.

These recorded examples may help you get a feel for the data.
structure_notation	category
CCOC(=O)[C@H]1[C@H](C(=O)OCC)N1C(=O)[C@@H]1CCN1C(=O)[C@H](CC(C)C)NC(=O)OC(C)(C)C	not met
CC(C)C[C@H](NC(=O)OC(C)(C)C)C(=O)N1CCC[C@H]1C(=O)N1[C@H](C(=O)OCc2ccccc2)[C@H]1C(=O)OCc1ccccc1	not met
C[C@@H](NC(=O)[C@@H](Cc1ccccc1)NC(=O)OC(C)(C)C)C(=O)N1[C@H](C(=O)OCc2ccccc2)[C@H]1C(=O)OCc1ccccc1	not met
CCOC(=O)[C@H]1[C@H](C(=O)OCC)N1C(=O)[C@H]1CCN1C(=O)[C@H](CC(C)C)NC(=O)OC(C)(C)C	not met
CC(C)(C)OC(=O)NCC(=O)N1CCC[C@@H]1C(=O)N1[C@H](C(=O)OCc2ccccc2)[C@H]1C(=O)OCc1ccccc1	not met

Query block: In plain terms: is recorded pKi at least 6 for "CC(C)(C)OC(=O)NCC(=O)N1CCC[C@H]1C(=O)N1[C@H](C(=O)OCc2ccccc2)[C@H]1C(=O)OCc1ccccc1" ?
Result block: not met

Query block: In plain terms: is recorded pKi at least 6 for "CCOC(=O)[C@@H]1[C@@H](C(=O)OCC)N1C(=O)[C@@H]1CCCN1C(=O)[C@H](CC(C)C)NC(=O)OC(C)(C)C" ?
Result block: not met

Query block: In plain terms: is recorded pKi at least 6 for "CCOC(=O)[C@H]1[C@H](C(=O)OCC)N1C(=O)C1CCN(C(=O)[C@H](CC(C)C)NC(=O)OC(C)(C)C)CC1" ?
Result block: not met

Query block: In plain terms: is recorded pKi at least 6 for "CC(C)C[C@H](NC(=O)OC(C)(C)C)C(=O)N1CCC[C@@H](C(=O)N2[C@H](C(=O)OCc3ccccc3)[C@H]2C(=O)OCc2ccccc2)C1" ?
Result block: met

Query block: In plain terms: is recorded pKi at least 6 for "CC(C)C[C@H](NC(=O)OC(C)(C)C)C(=O)N1CCC[C@H]1C(=O)N1[C@@H](C(=O)OCc2ccccc2)[C@@H]1C(=O)OCc1ccccc1" ?
Result block: met

Query block: In plain terms: is recorded pKi at least 6 for "CC(C)C[C@@H](NC(=O)OC(C)(C)C)C(=O)N1CCC[C@@H]1C(=O)N1[C@H](C(=O)OCc2ccccc2)[C@H]1C(=O)OCc1ccccc1" ?
Result block: not met

Query block: In plain terms: is recorded pKi at least 6 for "C[C@H](NC(=O)[C@@H](Cc1ccccc1)NC(=O)OC(C)(C)C)C(=O)N1[C@H](C(=O)O)[C@H]1C(=O)O" ?
Result block: met

Query block: In plain terms: is recorded pKi at least 6 for "CCOC(=O)[C@@H]1[C@@H](C(=O)OCC)N1C(=O)[C@@H]1CN1C(=O)[C@H](CC(C)C)NC(=O)OC(C)(C)C" ?
Result block: met

Query block: In plain terms: is recorded pKi at least 6 for "CCOC(=O)[C@@H]1[C@@H](C(=O)OCC)N1C(=O)[C@@H]1CN1C(=O)[C@@H](CC(C)C)NC(=O)OC(C)(C)C" ?
Result block: not met

Query block: In plain terms: is recorded pKi at least 6 for "C[C@H](NC(=O)[C@H](Cc1ccccc1)NC(=O)OC(C)(C)C)C(=O)N1[C@H](C(=O)OCc2ccccc2)[C@H]1C(=O)OCc1ccccc1" ?
Result block: not met

Query block: In plain terms: is recorded pKi at least 6 for "CC(C)C[C@H](NC(=O)OC(C)(C)C)C(=O)N1CCC[C@H](C(=O)N2[C@H](C(=O)OCc3ccccc3)[C@H]2C(=O)OCc2ccccc2)C1" ?
Result block: met
